# Subject Of Test: Epidermal growth factor receptor (Homo sapiens, UniProt P00533)
# Sequence (P00533 whole entry): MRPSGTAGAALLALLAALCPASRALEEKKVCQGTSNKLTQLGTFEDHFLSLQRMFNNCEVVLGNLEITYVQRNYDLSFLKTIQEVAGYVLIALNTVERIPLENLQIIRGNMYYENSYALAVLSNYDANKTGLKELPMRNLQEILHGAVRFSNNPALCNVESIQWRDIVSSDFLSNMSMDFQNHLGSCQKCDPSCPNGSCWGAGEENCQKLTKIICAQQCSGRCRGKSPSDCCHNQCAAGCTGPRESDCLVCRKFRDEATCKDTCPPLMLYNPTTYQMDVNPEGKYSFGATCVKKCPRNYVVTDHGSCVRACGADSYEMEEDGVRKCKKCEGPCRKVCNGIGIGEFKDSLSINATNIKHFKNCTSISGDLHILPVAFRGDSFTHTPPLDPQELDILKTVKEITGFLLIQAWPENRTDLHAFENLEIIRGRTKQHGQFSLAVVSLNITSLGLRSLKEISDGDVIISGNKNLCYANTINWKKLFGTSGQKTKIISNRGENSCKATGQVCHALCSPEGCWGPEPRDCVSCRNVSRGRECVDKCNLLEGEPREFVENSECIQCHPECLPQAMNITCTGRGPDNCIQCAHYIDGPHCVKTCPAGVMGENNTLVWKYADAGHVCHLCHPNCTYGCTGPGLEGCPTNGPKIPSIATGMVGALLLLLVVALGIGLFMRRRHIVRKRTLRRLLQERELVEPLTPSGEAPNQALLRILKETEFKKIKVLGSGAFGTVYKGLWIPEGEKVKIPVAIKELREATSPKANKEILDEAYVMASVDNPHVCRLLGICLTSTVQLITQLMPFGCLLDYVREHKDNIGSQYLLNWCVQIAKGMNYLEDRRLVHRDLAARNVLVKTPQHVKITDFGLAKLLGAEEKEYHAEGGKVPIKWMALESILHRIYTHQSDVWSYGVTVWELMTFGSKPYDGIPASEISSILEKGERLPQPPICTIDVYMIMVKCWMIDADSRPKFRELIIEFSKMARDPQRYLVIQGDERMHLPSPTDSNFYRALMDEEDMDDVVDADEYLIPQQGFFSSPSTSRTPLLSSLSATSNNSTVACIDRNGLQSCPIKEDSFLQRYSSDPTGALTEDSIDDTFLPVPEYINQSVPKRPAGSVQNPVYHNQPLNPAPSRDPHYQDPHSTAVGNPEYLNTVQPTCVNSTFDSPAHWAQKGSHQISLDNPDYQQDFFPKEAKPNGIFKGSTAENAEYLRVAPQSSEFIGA
pIC50: −log10 of the molar value.
Value Type: pIC50

| Structure String | Observed Result |
| --- | --- |
| COc1ccccc1Sc1sc2nc(N)nc(N)c2c1C | 4.98 |

###

# Subject Of Test: Dihydrofolate reductase (Homo sapiens, UniProt P00374)
# Sequence (P00374 whole entry): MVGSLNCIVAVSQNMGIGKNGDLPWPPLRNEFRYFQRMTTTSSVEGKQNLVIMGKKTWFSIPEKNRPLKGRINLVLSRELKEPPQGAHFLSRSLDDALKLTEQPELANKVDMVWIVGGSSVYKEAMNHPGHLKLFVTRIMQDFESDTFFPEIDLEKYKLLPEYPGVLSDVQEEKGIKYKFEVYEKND
pIC50: −log10 of the molar value.
Value Type: pIC50

| Structure String | Observed Result |
| --- | --- |
| COc1ccc(Sc2sc3nc(N)nc(N)c3c2C)cc1OC | 6.04 |
